Measured TGI values are reported for all entries that follow.
Test system: TK-10 renal
protocolDescription: NCI tumour cell line growth inhibition, 48 h

{"molecule": "COC(=O)Nc1nc2ccc(Oc3ccc(NC(=O)Nc4cccc(Br)c4)cc3)cc2[nH]1", "assayMetric": "TGI", "measurement": "12 µM"}

From here, focus on the item given below.
Identify measured TGI corresponding to `CC(C)(C)n1c(=O)n(C(=O)C(Cl)(Cl)Cl)n(C(=O)C(Cl)(Cl)Cl)c1=O`
> 100 µM

====

Tested on: OVCAR-4 ovarian
protocolDescription: NCI tumour cell line growth inhibition, 48 h; in the data active = GI50 below about 0.43 µM; inactive = the rest
Please answer using one outcome listed in yes (active), no (inactive)

Consider the worked cases shown below.
{"compound": "O=CN1N=C(c2ccc(Nc3ccnc4cc(Cl)ccc34)cc2)CC1c1ccccc1 (configuration not stated)", "classLabel": "no"}
{"compound": "C=C1C(=O)O[C@H]2[C@H]1CC/C(CNC(=O)/C=C/c1cccc(OC)c1)=C\\CC[C@@]1(C)O[C@@H]21", "classLabel": "no"}
{"compound": "CCCCCCCCCCCCCC[P+](CCCCCC)(CCCCCC)CCCCCC", "classLabel": "yes"}

API: the following record is the query input.
Look up the recorded call for O=c1[nH]cnc2c1nnn2C1OC(CO)C(O)C1O (configuration not stated) in this test.
yes

====

Test system: OVCAR-5 ovarian
protocolDescription: NCI tumour cell line growth inhibition, 48 h
assayMetric: TGI

{"compound": "CO/C(=N\\N=C\\c1ccc(Cl)cc1Cl)c1ccncc1", "TGI": "> 10 µM"}
{"compound": "C=CCN(c1cc(OCc2ccccc2)c(NC(C)=O)cc1[N+](=O)[O-])S(C)(=O)=O", "TGI": "> 100 µM"}
{"compound": "CC1=C(C)CC2(SC1)C(=O)c1ccccc1C2=O", "TGI": "> 100 µM"}
{"compound": "Nc1ccc(-c2nc3cc(F)ccc3s2)cc1I", "TGI": "43 µM"}
{"compound": "CN1C/C(=C\\c2ccc(Cl)cc2)C(=O)/C(=C/c2ccc(Cl)cc2)C1", "TGI": "> 100 µM"}
{"compound": "Cc1cc2c(cc1C)[n+](=O)c(C(=O)/C=C/c1ccc(Cl)cc1)c(C)n2[O-]", "TGI": "> 100 µM"}

Tell me TGI reported for `O=c1c2ccccc2n2nnc3ccc(NCCCNCCNCCCNc4ccc5nnn6c7ccccc7c(=O)c4c56)c1c32`
18.1 µM

State, in one line, measured TGI of NC(=O)C(Br)CBr (stereo not given)
13.7 µM

Using the record for O=C1OC2(C(F)(F)F)Oc3ccccc3CN2C12CCCCC2 (stereo not given) , state its measured TGI.
> 100 µM

Consider the compound CC(C)COC(=O)N1N=NC2C3OC(CC3=O)C21 (stereo not given) and give its recorded TGI.
> 100 µM

====

Entries and their GI50
Tested on: HL-60(TB) leukemia
protocolDescription: NCI tumour cell line growth inhibition, 48 h

{"recordSmiles": "Cc1ccc2c[c]1[Hg][CH2]COS2(=O)=O", "studySystem": "HL-60(TB) leukemia", "GI50": "21.8 µM"}
{"recordSmiles": "CCc1ccc(-c2ccc(=O)n(-c3ccc(S(N)(=O)=O)cc3)n2)cc1", "studySystem": "HL-60(TB) leukemia", "GI50": "0.365 µM"}

Alright, here's another compound for you.
Supply measured GI50 of `CCN(CC)c1ccc(N=C2C=C(C(=O)Nc3ccc(S(C)(=O)=O)cc3)C(=O)c3ccccc32)c(C)c1` in your reply.
14 µM

====

In this section, each of the compounds is paired with its reported TGI.
System: HL-60(TB) leukemia
protocolDescription: NCI tumour cell line growth inhibition, 48 h

{"compound": "OCC(O)C1OC2CC1Nc1ccccc1N2 (stereo unspecified)", "measurement": "> 100 µM"}
{"compound": "CCOP(=O)(OCC)/C(=C\\N1C(=O)CC(=O)NC1=S)C(=O)OC", "measurement": "> 100 µM"}
{"compound": "Cc1ccc(C)c(COCCOCn2cc(Br)c(N)nc2=O)c1", "measurement": "> 100 µM"}
{"compound": "NC1C2C(CC(=O)O)OCC=C3CN4CCC1(C(=O)C(=O)O)C4CC32 (stereo unspecified)", "measurement": "> 100 µM"}
{"compound": "CC1CCC2(NC1)OC1CC3[C@@H]4CC=C5C=CCC[C@]5(C)C4CC[C@]3(C)C1C2C (stereo partly specified)", "measurement": "29.7 µM"}

Identify measured TGI obtained with HL-60(TB) leukemia for `COc1ccc(S(=O)(=O)N/N=C/CN2C(=O)c3ccccc3C2=O)cc1OC` .
> 100 µM

Fetch value of TGI on HL-60(TB) leukemia for `O=C(c1ccccc1)c1c(C(F)(F)F)n([O-])c2cc(Cl)c(Cl)cc2[n+]1=O` .
2.06 µM

====

Test system: PC-3 prostate
protocolDescription: NCI tumour cell line growth inhibition, 48 h
Where a SMILES comes first, the peptide text is derived from it. The star is where a group is joined. Boc = CC(C)(C)OC(=O)*
assayMetric: TGI (µM)
Enter your answer as a number in µM; do not include the unit.

Specify TGI for `C=C1C(=O)O[C@H]2[C@H]1CC/C(CNC(=O)/C=C/c1cccc(OC)c1)=C\CC[C@@]1(C)O[C@@H]21` and stop.
3.86

Complete the entry with TGI for COC(=O)C(Cc1c[nH]c2ccccc12)NC(=O)C(Cc1c[nH]c2ccccc12)NC(=O)C(Cc1c[nH]c2ccccc12)NC(=O)C(Cc1c[nH]c2ccccc12)NC(=O)OC(C)(C)C (stereo not drawn) (Boc-WWWW-OMe; configuration not given here)
96.5

Report measured TGI; entry is `O=c1c2ccccc2n2nnc3ccc(NCCCNCCNCCCNc4ccc5nnn6c7ccccc7c(=O)c4c56)c1c32`
16.3

Return TGI for the following compound: `CCCCCCCCCCCCCC[P+](CCCCCC)(CCCCCC)CCCCCC`
0.125

====

Tested on: NCI-H522 lung
protocolDescription: NCI tumour cell line growth inhibition, 48 h
Below: a set of entries, each annotated with reported TGI.

Here's what some known entries look like.
{"compound": "N=S(=O)(c1ccccc1)c1ccccc1[N+](=O)[O-] (centres undefined)", "studySystem": "NCI-H522 lung", "TGI": "> 100 µM"}
{"compound": "N#Cc1cccc(C(=O)c2cnn(-c3ccc(F)cc3)c2N)c1", "studySystem": "NCI-H522 lung", "TGI": "> 25 µM"}
{"compound": "O=c1[nH]c(=O)n(C2CC(O)C(CO)O2)cc1C(OCC(F)(F)F)OCC(F)(F)F (centres undefined)", "studySystem": "NCI-H522 lung", "TGI": "> 100 µM"}

In the following, a different compound is considered.
Determine from records and report TGI for `COc1cc(/C=C2\N=C(c3ccccc3)N(/N=C3\C(=O)Nc4ccccc43)C2=O)cc(OC)c1OC`
> 100 µM

====

Consider the following compounds and their measured TGI readings.
Test system: RPMI-8226 leukemia
protocolDescription: NCI tumour cell line growth inhibition, 48 h

Some entries whose results are on file:
{"compound": "Cc1cc(NS(=O)(=O)c2ccc(NC(=O)c3cccc4c(NNc5ccc(S(=O)(=O)N=C(N)N)cc5)c5ccccc5nc34)cc2)no1", "TGI": "> 100 µM"}
{"compound": "CCOC(=O)/C(C#N)=C/c1ccc(CO)o1", "TGI": "> 100 µM"}
{"compound": "CC(C)(C)OC(=O)NC(Cc1ccc(O)cn1)C(N)=O (stereo unspecified)", "TGI": "> 100 µM"}

Give reported TGI value for `Cn1c(-c2ccc[se]2)ccc1-c1ccc(CO)[se]1`
> 100 µM

Find the measured TGI of NC(c1ccccc1)(C(F)(F)F)P1(=O)OC(=O)c2ccccc2O1 (stereo unspecified) and report it.
> 100 µM

Using known records, supply TGI for `COc1cc2c(cc1OCCCOC1=C=C=C(c3ccc4c(c3)c3cc(-c5ccc(OCCCOc6cc7c(cc6OC)C(=O)N6CCC[C@H]6C=N7)cc5)ccc3n4S(=O)(=O)c3ccc(C)cc3)C=C1)N=C[C@@H]1CCCN1C2=O`
> 14.5 µM

====

Each entry below carries its recorded TGI.
Tested on: ACHN renal
protocolDescription: NCI tumour cell line growth inhibition, 48 h

# return recorded TGI for entry `CC1=C(C)CC2(SC1)C(=O)c1ccccc1C2=O`
> 100 µM

Give the reported TGI for this molecule. `COc1c(OC)c(O)c2c(=O)c(OC)c(-c3ccc4c(c3)OCO4)oc2c1O`
> 100 µM

Report TGI for CC1=C(C(=O)Nc2ccc3[nH]ncc3c2)C(c2ccc(F)cc2)NC(=O)N1 (stereo not drawn)
> 25 µM

====

Tested on: OVCAR-4 ovarian
protocolDescription: NCI tumour cell line growth inhibition, 48 h
assayMetric: TGI

Answered cases to consult:
{"compound": "COC(=O)c1ccccc1C#CCCCOS(C)(=O)=O", "assayMetric": "TGI", "measurement": "> 10 µM"}
{"compound": "O=C1OC2(C(F)(F)F)Oc3ccccc3CN2C12CCCCC2 (centres undefined)", "assayMetric": "TGI", "measurement": "> 100 µM"}
{"compound": "COc1ccc(C(=C(I)c2ccccc2)c2ccc(OC)cc2)cc1", "assayMetric": "TGI", "measurement": "> 100 µM"}

Kindly review the next compound as well.
Determine its reported TGI: `O=c1[nH]c(=O)n(COCc2ccccc2)c2ccc(Br)cc12`
> 100 µM
